target: TTK (Homo sapiens (Human), UniProt P33981); assay: TTK enzyme assay (LanthaScreen Eu Kinase Binding); settings: arithmetic mean of two or more experiments
Sequence (P33981 whole entry): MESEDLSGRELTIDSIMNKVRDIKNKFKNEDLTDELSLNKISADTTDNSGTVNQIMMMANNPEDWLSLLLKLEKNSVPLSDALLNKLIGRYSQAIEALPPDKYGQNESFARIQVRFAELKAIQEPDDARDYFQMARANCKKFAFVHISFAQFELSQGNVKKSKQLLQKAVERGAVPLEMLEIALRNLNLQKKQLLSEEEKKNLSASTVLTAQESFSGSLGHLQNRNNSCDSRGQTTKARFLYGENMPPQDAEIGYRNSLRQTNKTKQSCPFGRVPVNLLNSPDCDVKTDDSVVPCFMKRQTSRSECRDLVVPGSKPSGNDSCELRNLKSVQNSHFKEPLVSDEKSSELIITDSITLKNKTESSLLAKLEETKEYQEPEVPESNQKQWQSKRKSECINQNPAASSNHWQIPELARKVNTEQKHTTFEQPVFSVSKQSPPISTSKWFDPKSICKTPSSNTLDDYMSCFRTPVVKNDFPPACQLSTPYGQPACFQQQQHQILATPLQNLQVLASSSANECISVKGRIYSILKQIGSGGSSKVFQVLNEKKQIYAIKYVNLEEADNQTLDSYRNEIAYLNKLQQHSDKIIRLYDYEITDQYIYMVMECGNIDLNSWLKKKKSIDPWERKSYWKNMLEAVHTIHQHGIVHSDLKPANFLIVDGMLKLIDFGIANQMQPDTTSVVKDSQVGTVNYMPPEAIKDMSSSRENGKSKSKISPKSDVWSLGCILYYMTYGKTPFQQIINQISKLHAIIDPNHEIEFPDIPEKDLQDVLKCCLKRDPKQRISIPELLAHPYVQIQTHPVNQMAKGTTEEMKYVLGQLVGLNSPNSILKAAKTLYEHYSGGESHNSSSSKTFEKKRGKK
Collected TTK enz pIC50 values appear next to each entry.
Please give the numeric answer without any surrounding text.

// below: answered molecules
{"CPD_SMILES": "CC(=O)N1CCC(n2c(=O)n(C)c3cnc(Nc4cc5cncnc5cc4C)nc32)CC1", "OBSERVED_RESULT": 5.4}
{"CPD_SMILES": "Cc1cc2nnccc2cc1Nc1ncc2c(n1)n([C@H]1CC[C@@H](O)CC1)c(=O)n2C", "OBSERVED_RESULT": 6.3}
{"CPD_SMILES": "Cc1cc2nccnc2cc1Nc1ncc2c(n1)n([C@@H]1CCCOC1)c(=O)n2C", "OBSERVED_RESULT": 5.8}

Query :: # input molecule: Cc1cc2ncccc2cc1Nc1ncc2c(n1)n([C@H]1CC[C@H](O)CC1)c(=O)n2C ; wanted: its TTK enz pIC50
Result :: 7.2
